- test.target: T1, mouse CADM3 (mouse, UniProt Q99N28 23-396)
- T1 construct: Full-length gene expressed transiently on Expi293F cells; also called mouse CADM3/Expi293F cells; Mouse CADM3-expressing cells
- T1 sequence: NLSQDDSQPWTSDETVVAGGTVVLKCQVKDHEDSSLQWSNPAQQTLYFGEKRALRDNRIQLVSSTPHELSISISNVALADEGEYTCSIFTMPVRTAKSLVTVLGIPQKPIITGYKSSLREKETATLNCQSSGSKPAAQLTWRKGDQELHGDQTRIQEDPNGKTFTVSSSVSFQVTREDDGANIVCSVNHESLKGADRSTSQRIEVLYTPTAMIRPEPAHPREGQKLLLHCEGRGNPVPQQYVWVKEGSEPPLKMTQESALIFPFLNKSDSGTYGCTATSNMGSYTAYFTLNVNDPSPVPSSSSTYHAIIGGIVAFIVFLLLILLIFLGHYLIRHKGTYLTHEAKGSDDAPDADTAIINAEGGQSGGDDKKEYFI
- procedure.summary: flow cytometry, 10 ug/mL, mouse CADM3/Expi293F vs parent Expi293F cells
Known Mean fluorescence intensity ratio of a selection of binders
experimental.endpoint: Mean fluorescence intensity ratio

>  <binder>
CADM3102 scFv-hG4PE (Fc fusion, also called anti-CADM3 scFv-Fc antibody) VH: QMQLVQSGAEVKKPGSSVKVSCKASGGTFSSYAISWVRQAPGQGLEWMGGIIPMSGTANYAQKFQGRVTITADESTSTAYMELSSLRSEDTAVYYCARVEESGWYDHYHGMDVWGQGTTVTVSS VL: DVVMTQSPLSLPVTPGEPASISCTSSQSLLYSNGFNYLDWYLQKPGQSPQLLIYLGSNRASGVPDRFSGSGSGTDFTLKISRVEAEDVGVYYCMQALTTHPTFGGGTKVDIK

>  <readout.number>
42.6

$$$$
>  <binder>
iCADM3_3R1-L8 VHH-hG4PE(R409K) (Fc fusion, VHH-Fc antibody; also called anti-CADM3 VHH-Fc antibody iCADM3_3R1-L8; not shown: Hinge-CH2-CH3 region of the human IgG4 heavy chain constant region (IgG4 variant)) QVQLVESGGGLVQPGGSLRLSCAASGRTFSNYARGWFRQAPGKEREFVAAIDYSGGSTNYADSAKGRFTISRDNAKNTVYLQMNSLKPGDTAVYYCAAPASRRPSWDADGYDYWGQGTQVTVSS

>  <readout.number>
8.2

$$$$
>  <binder>
iCADM3_3R1-L10 VHH-hG4PE(R409K) (Fc fusion, VHH-Fc antibody; also called anti-CADM3 VHH-Fc antibody iCADM3_3R1-L10; not shown: Hinge-CH2-CH3 region of the human IgG4 heavy chain constant region (IgG4 variant)) QVQLVESGGGLVQAGGSLRLSCAASGSIFSIHAMGWYRQAPGKQRELVATVTSGGSTNYADSVKGRFTISRDNAKNTVYLQMNSLKPEDTAVYYCNAETPYYSSTYYTNYWGQGTQVTVSS

>  <readout.number>
8.87

$$$$
